System: A.D.P.-induced blood-platelet aggregation
Assay: A.D.P.-induced blood-platelet aggregation after oral treatment of rats
Format: in vivo, Wistar rats
Conditions: Rattus norvegicus, 100 mg/kg oral, 3 hrs after treatment, 10 μM A.D.P. solution, read-out: Percent inhibition of blood-platelet aggregation, A.D.P.
Observable: inhibition at 100 mg/kg (%)
Answers are plain numbers, in %.

Worked set:
> print(dat)
                                   compound               observable  unit.annotation  numeric.readout
1  O=C1c2sccc2CCN1Cc1ccccc1Cl [Derivative n°4]  inhibition at 100 mg/kg                %             62.9
2    CC(=O)N1CCc2sccc2C1=O [Derivative n°5]  inhibition at 100 mg/kg                %             63.2

Shift focus to the following entry.
## Input Dear colleague, please send me the reported inhibition at 100 mg/kg for O=C1c2ccsc2CCN1Cc1ccc(Cl)cc1 [Derivative n°3] when you can.
## Output 60.8
